Assay: NCI Yeast Anticancer Drug Screen. Data for the wt1 strain (AID 149);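 also: 0% = growth of vehicle-treated wt1 cultures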
Conditions: S. cerevisiae wt1 strain (SPY 50644) growth inhibition; at 100.0 µM; active compounds read high
About 79,000 compounds went through this panel and 15% of them were active in at least one assay; those are over-represented in the sample as a whole.
Quantity: growth inhibition (%)

Molecule: Cc1sc2ccc3ccccc3c2[n+]1C
Reported result: 94
//
Molecule: O/N=C\c1c(O)ccc2ccccc12
Reported result: 22
//
Molecule: CCCCC(CC)C(=O)[O][Sn]([CH2]CCC)([CH2]CCC)[O]C(=O)C(CC)CCCC (stereo not drawn)
Reported result: 98
//
Molecule: CC(C)OC(=O)Nc1ccc2nc(-c3cscn3)[nH]c2c1
Reported result: 50
//
Molecule: CCCCN(CCCC)CCC(O)c1cc2c(Cl)cc(Cl)cc2c2cc(C(F)(F)F)ccc12 (stereo not drawn)
Reported result: 96
//
Molecule: CC(C)(C)[Si](C)(C)OCC1CCC(n2cnc3c(NC(=O)c4ccccc4)ncnc32)O1 (stereo not drawn)
Reported result: -2
//
Molecule: Cc1ccc(Cl)cc1NC(=O)OCCN(C)C(=O)Nc1cc(Cl)ccc1C
Reported result: 34
//
Molecule: C=C(Cl)COC(=O)Nc1cccc(Cl)c1
Reported result: 90
//
Molecule: NC(=O)c1c([N+](=O)[O-])cc(C(F)(F)F)cc1[N+](=O)[O-]
Reported result: 2
//
Molecule: N/C(=N/N=C/c1cc(Br)cc(Br)c1O)NO
Reported result: 98
//
Molecule: COc1ccc(/C=C2\NC(=S)N(/C=C3\C(=O)Oc4ccccc4C3=O)C2=O)cc1
Reported result: 15
//
Molecule: CCCCc1ccc(-n2c(C)c(COC(=O)NC)c(COC(=O)NC)c2C)cc1
Reported result: 91
//
Molecule: CN(C)Cc1cc(N=Nc2ccc(Cl)cc2)ccc1OC(=O)c1ccccc1
Reported result: -1
//
Molecule: CCOC(=O)C(C(=O)OCC)=P(c1ccccc1)(c1ccccc1)c1ccccc1
Reported result: 93
//
Molecule: O=C1OC(OC/C(Br)=C(\Br)COC2OC(=O)C(Cl)=C2Cl)C(Cl)=C1Cl (stereo not drawn)
Reported result: 18
//
Molecule: COc1ccc2c(c1)n([O-])c1ccccc1[n+]2=O
Reported result: 69
//
Molecule: CCCOC(=O)C(F)C(Br)C(=O)OCCC (stereo not drawn)
Reported result: 99
//
Molecule: Oc1ccc(SCc2ccc(NCc3ccccc3)cc2)cc1
Reported result: 91
//
Molecule: C[C@@](O)(/C=C/[C@H]1CC=CC(=O)O1)[C@@H](C[C@@H](O)\C=C/C=C\C=C\CO)OP(=O)(O)O
Reported result: 81
//
Molecule: O=c1ssc(=Nc2ccccc2)n1-c1ccccc1
Reported result: 11
//
Molecule: NCCNCCNc1ccc(NCCNCCN)c2c1C(=O)c1c(O)ccc(O)c1C2=O
Reported result: 12
//
Molecule: CCc1c[n+]([O-])c(C)cc1[N+](=O)[O-]
Reported result: 13
//
Molecule: COc1ccc(NC(=O)CC2SC(=Nc3ccccc3C)NC2=O)c([N+](=O)[O-])c1 (stereo not drawn)
Reported result: 36

* * *

Experiment: NCI Yeast Anticancer Drug Screen. Data for the bub3 strain (AID 167)
Conditions: S. cerevisiae bub3 mutant strain, at 5.0 µM (retest, dose inferred, filed as 0.5), active compounds read high
This is part of a sample that, as a whole, favours compounds with a hit. Of some 79,000 tested, about 15% had one in any assay.
molecules and their reported growth inhibition
Quantity: growth inhibition (%)

Molecule: O=C1C(=O)c2ccccc2C(O)=C1C(C1=C(O)c2ccccc2C(=O)C1=O)c1ccc(Cl)cc1
Reported result: -3

Molecule: CC(=O)SC(C[N+](=O)[O-])c1ccccc1 (configuration not stated)
Reported result: 8

Molecule: CCOC(=O)C1N=[N+](c2ccccc2)C(=O)/C1=C\n1c(=S)[nH]c2ccc([N+](=O)[O-])cc21 (configuration not stated)
Reported result: 97

Molecule: CC1SC2(C(=O)Nc3ccc(Cl)cc32)N(c2ccc(Cl)cc2)C1=O (configuration not stated)
Reported result: 28

Molecule: O=C(O)c1cc2ccccc2c2c1C(=O)c1ccccc1-2
Reported result: 14

Molecule: C=C(Cl)COC(=O)Nc1cccc(Cl)c1
Reported result: -25

Molecule: CC(C)OC(=O)c1ccc(CCc2cc(O)c(Br)cc2O)cc1
Reported result: 4

Molecule: Oc1cccc2cc(Cl)cnc12
Reported result: 55

Molecule: CCCC/C=C/C(C)(C(=O)OCC)C(=O)OCC
Reported result: -2

Molecule: Oc1ccc(-c2nc(-c3ccc(F)cc3)c(-c3ccc4ccccc4n3)[nH]2)cc1
Reported result: 5

Molecule: CCOC(=O)c1[nH]cc(C)c1-c1cccn1-c1ccc(Cl)cc1[N+](=O)[O-]
Reported result: 9

Molecule: CNC(=O)OCc1c(COC(=O)NC)c2n(c1C)-c1ccc(OC)cc1CCC2
Reported result: 45

Molecule: Oc1ccc(O)c(Cc2ccccc2)c1
Reported result: -26

Molecule: CCCCCCCCCCCC(O)S(=O)(=O)O (configuration not stated)
Reported result: 0

Molecule: Nc1ncc(-c2ccc(Br)cc2)s1
Reported result: -18

Molecule: CCC1(OC(=O)CN2CCN(CCO)CC2)C(=O)OCc2c1cc1n(c2=O)Cc2cc3ccccc3nc2-1 (configuration not stated)
Reported result: 0

Molecule: Oc1ccc2ccccc2c1CCc1c(O)ccc2ccccc12
Reported result: 45

Molecule: COc1ccc(C(NCCNC(c2ccc(OC)c(OC)c2)c2cc3c(cc2O)OCO3)c2cc3c(cc2O)OCO3)cc1OC (configuration not stated)
Reported result: -21

Molecule: COc1cc(C2SCC(=O)N2c2ccc(-c3ccc(-n4c(-c5ccccc5)nc5ccccc5c4=O)cc3)cc2)ccc1O (configuration not stated)
Reported result: -14

Molecule: O=[N+]([O-])c1cccc2nc3ccccc3c(NCCCn3ccnc3[N+](=O)[O-])c12
Reported result: 11

Molecule: NCCNCCNc1ccc(NCCNCCN)c2c1C(=O)c1c(O)ccc(O)c1C2=O
Reported result: 20

Molecule: O=Cc1ccc2c(c1)C(=O)c1ccccc1C2=O
Reported result: -3

Value source: PubChem BioAssay (NCI)
